# ASSAY_OVERVIEW: ATG_NF_kB_CIS: Attagene CIS-FACTORIAL HepG2 Assay for human Nuclear Factor Kappa B (NF-kB) (AID 2282991)
# RUN_PARAMETERS: HepG2 Attagene cis-factorial NF-kB reporter mRNA; actives raise or lower the signal
The source made the active and inactive calls. The calls were made as follows: active = hit-call score of the fitted dose curve at least 0.9, where 1 is the maximum; inactive = score below 0.9.
Lab note: assign the record to one of active, inactive

### Prompt What did the test return for `CC(C)N(C(=O)COc1nnc(C(F)(F)F)s1)c1ccc(F)cc1` ?
### Response active

### Prompt What did the test return for `CCOCN(C(=O)CCl)c1c(C)cccc1CC` ?
### Response inactive

### Prompt What did the test return for `O=C1c2ccccc2C(=O)N1SC(Cl)(Cl)Cl` ?
### Response inactive

### Prompt What did the test return for `CCOc1nc(NC)nc(NC(=O)NS(=O)(=O)c2ccccc2C(=O)OC)n1` ?
### Response inactive

### Prompt What did the test return for `COP(=O)(OC)OC=C(Cl)Cl` ?
### Response inactive

### Prompt What did the test return for `Cc1[nH]c(=O)n(C(C)(C)C)c(=O)c1Cl` ?
### Response inactive

### Prompt What did the test return for `CN1CSC(=S)N(C)C1` ?
### Response inactive
